- TARGET_SYSTEM: baculovirus-expressed ALK (Homo sapiens, UniProt Q9UM73)
- Sequence (Q9UM73 19-1620): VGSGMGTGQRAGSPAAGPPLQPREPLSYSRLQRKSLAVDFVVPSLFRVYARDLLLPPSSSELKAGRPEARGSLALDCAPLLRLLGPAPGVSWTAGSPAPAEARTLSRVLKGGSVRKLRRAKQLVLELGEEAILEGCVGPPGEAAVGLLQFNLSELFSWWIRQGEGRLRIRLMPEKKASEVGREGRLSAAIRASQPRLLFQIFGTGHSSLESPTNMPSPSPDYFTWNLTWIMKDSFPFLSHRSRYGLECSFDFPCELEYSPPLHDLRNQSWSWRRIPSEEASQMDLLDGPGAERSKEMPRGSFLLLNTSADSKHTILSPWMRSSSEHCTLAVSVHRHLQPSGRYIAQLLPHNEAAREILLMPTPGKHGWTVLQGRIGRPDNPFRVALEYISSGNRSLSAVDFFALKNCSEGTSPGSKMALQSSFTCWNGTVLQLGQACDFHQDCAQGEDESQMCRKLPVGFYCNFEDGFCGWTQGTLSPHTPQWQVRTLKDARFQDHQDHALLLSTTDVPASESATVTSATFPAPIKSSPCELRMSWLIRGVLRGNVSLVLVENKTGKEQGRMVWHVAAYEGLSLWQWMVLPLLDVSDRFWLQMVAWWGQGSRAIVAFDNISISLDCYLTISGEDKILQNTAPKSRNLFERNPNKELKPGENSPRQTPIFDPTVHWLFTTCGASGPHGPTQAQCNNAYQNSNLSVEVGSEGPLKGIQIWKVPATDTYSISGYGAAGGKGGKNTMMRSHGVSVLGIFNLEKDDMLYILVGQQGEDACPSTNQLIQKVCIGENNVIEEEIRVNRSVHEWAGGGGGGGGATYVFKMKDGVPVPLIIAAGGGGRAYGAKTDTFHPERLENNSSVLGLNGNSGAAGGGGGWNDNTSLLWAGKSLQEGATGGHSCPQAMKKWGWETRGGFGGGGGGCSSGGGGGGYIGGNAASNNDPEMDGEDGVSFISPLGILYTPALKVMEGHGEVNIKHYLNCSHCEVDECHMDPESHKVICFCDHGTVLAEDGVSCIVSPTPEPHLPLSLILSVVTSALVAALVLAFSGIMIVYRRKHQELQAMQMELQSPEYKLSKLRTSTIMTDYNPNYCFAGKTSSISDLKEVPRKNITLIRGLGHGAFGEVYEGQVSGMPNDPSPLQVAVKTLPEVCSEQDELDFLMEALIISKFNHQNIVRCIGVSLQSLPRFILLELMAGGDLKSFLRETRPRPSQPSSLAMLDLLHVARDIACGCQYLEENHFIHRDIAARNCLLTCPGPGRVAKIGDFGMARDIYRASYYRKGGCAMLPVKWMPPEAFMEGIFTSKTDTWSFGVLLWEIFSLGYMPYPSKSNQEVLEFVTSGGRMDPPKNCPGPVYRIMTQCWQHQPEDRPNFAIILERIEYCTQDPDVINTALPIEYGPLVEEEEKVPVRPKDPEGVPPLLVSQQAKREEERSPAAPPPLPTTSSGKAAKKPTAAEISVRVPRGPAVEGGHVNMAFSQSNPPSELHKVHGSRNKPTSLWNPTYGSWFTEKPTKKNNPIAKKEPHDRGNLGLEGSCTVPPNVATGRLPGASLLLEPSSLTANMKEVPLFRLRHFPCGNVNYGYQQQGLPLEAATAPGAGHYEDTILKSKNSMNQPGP
- ASSAY_NOTES: ALK kinase inhibition, TRF/ELISA
- Assay type: biochemical
- EXPERIMENTAL_PARAMETERS: read-out: ALK Potency
pIC50: −log10 of the molar value. Structures can show the parent of a compound that is named as a salt.
Kindly state pIC50 for each of the entries shown.

# lookup: pIC50 of CC(C)(C)OC(=O)N1CCCC(c2nc3c(N[C@H]4[C@@H](C(N)=O)[C@@H]5C=C[C@H]4C5)c(Br)cnc3[nH]2)C1 (stereo partly shown) [Compound LXXXII]
6.00 to 7.00

# lookup: pIC50 of NC(=O)[C@@H]1[C@H](Nc2c(Br)cnc3[nH]c(-c4ccc(F)cc4)nc23)[C@H]2C=C[C@@H]1C2 [Compound CXXXIII]
6.00 to 7.00

# lookup: pIC50 of NC(=O)COc1ccc(-c2nc3c(N[C@H]4[C@@H](C(N)=O)[C@@H]5C=C[C@H]4C5)c(Cl)cnc3[nH]2)cc1 [Compound CCXL]
6.00 to 7.00

# lookup: pIC50 of NC(=O)[C@@H]1[C@H](Nc2c(Cl)cnc3[nH]c(-c4ccc(N5CCOCC5)cc4Cl)nc23)[C@H]2C=C[C@@H]1C2 [Compound CXX]
> 7.00

# lookup: pIC50 of CN1CCC(c2nc3c(N[C@H]4[C@@H](C(N)=O)[C@@H]5C=C[C@H]4C5)c(Cl)cnc3[nH]2)CC1 [Compound CL]
5.00 to 6.00

# lookup: pIC50 of COc1cc(CN2CC[C@H](O)C2)ccc1-c1nc2c(N[C@H]3[C@@H](C(N)=O)[C@@H]4C=C[C@H]3C4)c(Cl)cnc2[nH]1 [Compound LV]
> 7.00

# lookup: pIC50 of CN1CCN(Cc2ccc(-c3nc4c(N[C@H]5[C@@H](C(N)=O)[C@@H]6C=C[C@H]5C6)c(Br)cnc4[nH]3)cc2)CC1 [Compound C]
> 7.00

# lookup: pIC50 of CC(C)(C)OC(=O)N1CCC(n2cc(-c3nc4c(N[C@H]5[C@@H](C(N)=O)[C@@H]6C=C[C@H]5C6)c(Cl)cnc4[nH]3)cn2)CC1 [Compound L]
6.00 to 7.00

# lookup: pIC50 of CN(C)c1cccc(-c2nc3c(N[C@H]4[C@@H](C(N)=O)[C@@H]5C=C[C@H]4C5)c(Cl)cnc3[nH]2)c1 [Compound XII]
6.00 to 7.00

# lookup: pIC50 of COc1cc(CN2CCNCC2)ccc1-c1nc2c(N[C@H]3[C@@H](C(N)=O)[C@@H]4C=C[C@H]3C4)c(Cl)cnc2[nH]1 [Compound XLII]
> 7.00

# lookup: pIC50 of CN1CCN(c2ncc(-c3nc4c(N[C@H]5[C@@H](C(N)=O)[C@@H]6C=C[C@H]5C6)c(Cl)cnc4[nH]3)s2)CC1 [Compound CCXI]
> 7.00

# lookup: pIC50 of COc1cc(CN2CC[C@@H](O)C2)ccc1-c1nc2c(N[C@@H]3CCCC[C@H]3NS(C)(=O)=O)c(Cl)cnc2[nH]1 [Compound LXXV]
> 7.00

# lookup: pIC50 of NC(=O)[C@@H]1[C@H](Nc2c(Cl)cnc3[nH]c(-c4cccc(CN5CCOCC5)c4)nc23)[C@H]2C=C[C@@H]1C2 [Compound XVI, trifluoroacetic acid salt]
> 7.00

###

- TARGET_SYSTEM: baculovirus-expressed JAK2 kinase (Homo sapiens)
- Sequence (O60674 whole entry): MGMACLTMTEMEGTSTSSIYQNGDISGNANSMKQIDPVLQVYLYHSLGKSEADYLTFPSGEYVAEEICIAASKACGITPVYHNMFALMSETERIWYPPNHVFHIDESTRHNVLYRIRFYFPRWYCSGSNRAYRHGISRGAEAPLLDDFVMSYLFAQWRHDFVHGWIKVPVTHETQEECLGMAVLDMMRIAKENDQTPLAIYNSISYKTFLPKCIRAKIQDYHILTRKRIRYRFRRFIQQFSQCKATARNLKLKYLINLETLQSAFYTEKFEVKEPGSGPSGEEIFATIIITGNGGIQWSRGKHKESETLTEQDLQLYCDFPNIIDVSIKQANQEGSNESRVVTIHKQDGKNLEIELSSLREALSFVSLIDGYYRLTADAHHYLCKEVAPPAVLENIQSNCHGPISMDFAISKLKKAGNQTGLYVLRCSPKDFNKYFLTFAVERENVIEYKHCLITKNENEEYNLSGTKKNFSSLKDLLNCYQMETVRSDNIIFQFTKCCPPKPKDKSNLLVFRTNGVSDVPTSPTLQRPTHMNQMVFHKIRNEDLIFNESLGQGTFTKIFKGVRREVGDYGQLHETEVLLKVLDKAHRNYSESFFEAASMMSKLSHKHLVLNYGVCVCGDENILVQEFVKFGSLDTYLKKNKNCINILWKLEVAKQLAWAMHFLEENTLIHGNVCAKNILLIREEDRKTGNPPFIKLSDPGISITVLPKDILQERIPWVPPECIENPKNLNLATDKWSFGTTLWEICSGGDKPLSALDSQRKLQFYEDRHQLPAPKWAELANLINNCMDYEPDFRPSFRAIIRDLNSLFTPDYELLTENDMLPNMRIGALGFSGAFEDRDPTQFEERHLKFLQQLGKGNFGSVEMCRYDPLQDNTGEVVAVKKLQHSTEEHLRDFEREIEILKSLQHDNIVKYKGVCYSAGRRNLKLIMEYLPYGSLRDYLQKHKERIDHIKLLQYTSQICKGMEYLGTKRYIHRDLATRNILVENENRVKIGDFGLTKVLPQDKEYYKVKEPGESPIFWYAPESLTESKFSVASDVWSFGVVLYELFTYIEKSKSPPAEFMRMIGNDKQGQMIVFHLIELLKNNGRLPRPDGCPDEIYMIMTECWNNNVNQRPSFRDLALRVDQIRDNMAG
- ASSAY_NOTES: biochemical
- EXPERIMENTAL_PARAMETERS: 0.2 μM ATP; read-out: JAK2 Potency
METRIC_NAME: IC50

Record COc1cccc(-c2nc3c(N[C@H]4[C@@H](C(N)=O)[C@@H]5C=C[C@H]4C5)c(Cl)cnc3[nH]2)n1 : what is its IC50 with baculovirus-expressed JAK2 kinase (Homo sapiens)?
< 100 nM

Record Cc1nn(C)c(N2CCOCC2)c1-c1nc2c(N[C@H]3[C@@H](C(N)=O)[C@@H]4C=C[C@H]3C4)c(Cl)cnc2[nH]1 : what is its IC50 with baculovirus-expressed JAK2 kinase (Homo sapiens)?
1000 to 10000 nM

Record O=C(NC1CC1)[C@@H]1[C@H](Nc2c(Cl)cnc3[nH]c(-c4sc(N5CC[C@@H](O)C5)nc4Cl)nc23)[C@H]2C=C[C@@H]1C2 : what is its IC50 with baculovirus-expressed JAK2 kinase (Homo sapiens)?
100 to 1000 nM

Record NC(=O)[C@@H]1[C@H](Nc2c(Br)cnc3[nH]c(-c4ccc5c(c4)CCC4(CCNCC4)O5)nc23)[C@H]2C=C[C@@H]1C2 : what is its IC50 with baculovirus-expressed JAK2 kinase (Homo sapiens)?
< 100 nM

Record NC(=O)[C@@H]1[C@H](Nc2c(Cl)cnc3[nH]c(-c4sc(N5CCCC5)nc4Cl)nc23)[C@H]2C=C[C@@H]1C2 : what is its IC50 with baculovirus-expressed JAK2 kinase (Homo sapiens)?
< 100 nM

Record CN1CCN(Cc2ccc(-c3nc4c(N[C@H]5[C@@H](C(N)=O)[C@@H]6C=C[C@H]5C6)c(Br)cnc4[nH]3)cc2)CC1 : what is its IC50 with baculovirus-expressed JAK2 kinase (Homo sapiens)?
< 100 nM

Record NC(=O)[C@@H]1[C@H](Nc2c(Br)cnc3[nH]c(-c4ccc(CN5CCOCC5)cc4)nc23)[C@H]2C=C[C@@H]1C2 : what is its IC50 with baculovirus-expressed JAK2 kinase (Homo sapiens)?
< 100 nM

Record NC(=O)[C@@H]1[C@H](Nc2c(Cl)cnc3[nH]c(-c4cccc(OCC(=O)O)c4)nc23)[C@H]2C=C[C@@H]1C2 : what is its IC50 with baculovirus-expressed JAK2 kinase (Homo sapiens)?
< 100 nM

Record CN1CCN(c2nc(Cl)c(-c3nc4c(N[C@H]5[C@@H](C(=O)N(C)C)[C@@H]6C=C[C@H]5C6)c(Cl)cnc4[nH]3)s2)CC1 : what is its IC50 with baculovirus-expressed JAK2 kinase (Homo sapiens)?
< 100 nM

Record COc1cc(N2CCOCC2)ccc1-c1nc2c(NC34CCC(C)(C(O)C3)C4(C)C)c(Cl)cnc2[nH]1 (stereo not shown) : what is its IC50 with baculovirus-expressed JAK2 kinase (Homo sapiens)?
100 to 1000 nM

Record COc1ncc(-c2nc3c(N[C@H]4[C@@H](C(N)=O)[C@@H]5C=C[C@H]4C5)c(Cl)cnc3[nH]2)s1 : what is its IC50 with baculovirus-expressed JAK2 kinase (Homo sapiens)?
< 100 nM

Record NC(=O)[C@@H]1[C@H](Nc2c(Br)cnc3[nH]c(-c4cccnc4N4CCOCC4)nc23)[C@H]2C=C[C@@H]1C2 : what is its IC50 with baculovirus-expressed JAK2 kinase (Homo sapiens)?
1000 to 10000 nM

Record NC(=O)[C@@H]1[C@H](Nc2c(Cl)cnc3[nH]c(-c4cccnc4N4CCOCC4)nc23)[C@H]2C=C[C@@H]1C2 : what is its IC50 with baculovirus-expressed JAK2 kinase (Homo sapiens)?
> 10000 nM

###

- TARGET_SYSTEM: baculovirus-expressed JAK2 kinase (Homo sapiens)
- ASSAY_NOTES: biochemical
- EXPERIMENTAL_PARAMETERS: JAK2 Potency
pIC50: −log10 of the molar value. Counter-ions that a name gives are not always drawn.
METRIC_NAME: pIC50

# lookup: pIC50 of COc1cc(N2CCOCC2)ccc1-c1nc2c(N3C[C@@H]4C[C@H]3CN4)c(Cl)cnc2[nH]1 [Compound XXXVII, hydrochloride]
5.00 to 6.00

###

Kindly state pIC50 for each of the entries shown.
- TARGET_SYSTEM: baculovirus-expressed ALK (Homo sapiens, UniProt Q9UM73)
- ASSAY_NOTES: ALK kinase inhibition, TRF/ELISA
- Assay type: biochemical
- EXPERIMENTAL_PARAMETERS: read-out: ALK Potency
pIC50: −log10 of the molar value.

# lookup: pIC50 of O=C(NC1CC1)[C@@H]1[C@H](Nc2c(Cl)cnc3[nH]c(-c4sc(N5CCCC5)nc4Cl)nc23)[C@H]2C=C[C@@H]1C2
> 7.00

# lookup: pIC50 of COc1ccc(-c2nc3c(N[C@H]4[C@@H](C(N)=O)[C@@H]5C=C[C@H]4C5)c(Cl)cnc3[nH]2)c(C2CCN(C[C@H](C)O)CC2)c1
5.00 to 6.00

# lookup: pIC50 of NC(=O)[C@@H]1[C@H](Nc2c(Cl)cnc3[nH]c(-c4ccccc4Cl)nc23)[C@H]2C=C[C@@H]1C2
6.00 to 7.00

###

Kindly state pIC50 for each of the entries shown.
- TARGET_SYSTEM: baculovirus-expressed JAK2 kinase (Homo sapiens)
- ASSAY_NOTES: biochemical
- EXPERIMENTAL_PARAMETERS: 0.2 μM ATP; read-out: JAK2 Potency
pIC50: −log10 of the molar value.

# lookup: pIC50 of NC(=O)[C@@H]1[C@H](Nc2c(Br)cnc3[nH]c(-c4cccc(Cl)c4)nc23)[C@H]2C=C[C@@H]1C2 [Compound CXLII]
> 7.00

# lookup: pIC50 of COc1cc(N2CCOCC2)ccc1-c1nc2c(NC34CCC(C)(C(=O)C3)C4(C)C)c(Cl)cnc2[nH]1 (stereo not shown) [Compound CC]
6.00 to 7.00

# lookup: pIC50 of COc1cc(CN2CCN(C[C@@H](C)O)CC2)ccc1-c1nc2c(N[C@H]3[C@@H](C(N)=O)[C@@H]4C=C[C@H]3C4)c(Cl)cnc2[nH]1 [Compound XLIV]
> 7.00

# lookup: pIC50 of NC(=O)COc1cccc(-c2nc3c(N[C@H]4[C@@H](C(N)=O)[C@@H]5C=C[C@H]4C5)c(Cl)cnc3[nH]2)c1 [Compound CCXXXVIII]
> 7.00

# lookup: pIC50 of COc1ccc(-c2nc3c(N[C@H]4[C@@H](C(N)=O)[C@@H]5C=C[C@H]4C5)c(Cl)cnc3[nH]2)c(C2CCN(C[C@H](O)CO)CC2)c1 [Compound XXXIII]
6.00 to 7.00

# lookup: pIC50 of COc1cc(OC(F)(F)F)ccc1-c1nc2c(N[C@H]3[C@@H](C(N)=O)[C@@H]4C=C[C@H]3C4)c(Cl)cnc2[nH]1 [Compound XVIII]
6.00 to 7.00

# lookup: pIC50 of CN(C)c1cccc(-c2nc3c(N[C@H]4[C@@H](C(N)=O)[C@@H]5C=C[C@H]4C5)ccnc3[nH]2)c1 [Compound LXXXVII]
5.00 to 6.00

# lookup: pIC50 of CN(C)C(=O)[C@@H]1[C@H](Nc2c(Cl)cnc3[nH]c(-c4sc(N5CC[C@@H](O)C5)nc4Cl)nc23)[C@H]2C=C[C@@H]1C2 [Compound CLXVIII]
> 7.00

# lookup: pIC50 of NC(=O)[C@@H]1[C@H](Nc2c(Br)cnc3[nH]c(-c4sc(N5CC[C@@H](O)C5)nc4Cl)nc23)[C@H]2C=C[C@@H]1C2 [Compound CLXXI]
> 7.00

# lookup: pIC50 of COc1cccc(OC)c1-c1nc2c(N[C@H]3[C@@H](C(N)=O)[C@@H]4C=C[C@H]3C4)c(Br)cnc2[nH]1 [Compound CVI]
5.00 to 6.00

# lookup: pIC50 of Cn1cc(-c2nc3c(N[C@H]4[C@@H](C(N)=O)[C@@H]5CC[C@H]4O5)c(Cl)cnc3[nH]2)cn1 [Compound CCV]
6.00 to 7.00

# lookup: pIC50 of COc1cc(N2CCC(N3CCN(C)CC3)CC2)ccc1-c1nc2c(N[C@H]3[C@@H](C(N)=O)[C@@H]4C=C[C@H]3C4)ccnc2[nH]1 [Compound XCIX]
< 5.00

# lookup: pIC50 of NC(=O)[C@@H]1[C@H](Nc2c(Cl)cnc3[nH]c(-c4cccc(C(=O)O)c4)nc23)[C@H]2C=C[C@@H]1C2 [Compound CCXVII]
> 7.00

# lookup: pIC50 of CC(C)NC(=O)[C@@H]1[C@H](Nc2c(Cl)cnc3[nH]c(-c4cnn(C)c4)nc23)[C@H]2C=C[C@@H]1C2 [Compound CLXXXVII]
6.00 to 7.00

# lookup: pIC50 of CN1CCN(c2nc(Cl)c(-c3nc4c(N[C@H]5[C@@H](C(N)=O)[C@@H]6C=C[C@H]5C6)c(Cl)cnc4[nH]3)s2)CC1 [Compound CCXII]
> 7.00

# lookup: pIC50 of COc1cccc(-c2nc3c(N[C@H]4[C@@H](C(N)=O)[C@@H]5C=C[C@H]4C5)c(Cl)cnc3[nH]2)c1 [Compound V]
> 7.00

# lookup: pIC50 of NC(=O)COc1ccc(-c2nc3c(N[C@H]4[C@@H](C(N)=O)[C@@H]5C=C[C@H]4C5)c(Cl)cnc3[nH]2)cc1 [Compound CCXL]
> 7.00

# lookup: pIC50 of CC(=O)N1CCC(n2cc(-c3nc4c(N[C@H]5[C@@H](C(N)=O)[C@@H]6C=C[C@H]5C6)c(Cl)cnc4[nH]3)cn2)CC1 [Compound LXI]
> 7.00

# lookup: pIC50 of NC(=O)[C@@H]1[C@H](Nc2c(Cl)cnc3[nH]c(-c4ccc(N5CCOCC5)cc4)nc23)[C@H]2C=C[C@@H]1C2 [Compound IV]
> 7.00

# lookup: pIC50 of CN1CCN(CCOc2ccc(-c3nc4c(N[C@H]5[C@@H](C(=O)N(C)C)[C@@H]6C=C[C@H]5C6)c(Cl)cnc4[nH]3)cc2)CC1 [Compound CLXXV]
> 7.00

# lookup: pIC50 of COc1cc(CN2CC[C@H](O)C2)ccc1-c1nc2c(N[C@H]3[C@@H](C(N)=O)[C@@H]4C=C[C@H]3C4)c(Cl)cnc2[nH]1 [Compound LV]
> 7.00

# lookup: pIC50 of CN(C)CCOc1cccc(-c2nc3c(N[C@H]4[C@@H](C(N)=O)[C@@H]5C=C[C@H]4C5)c(Cl)cnc3[nH]2)c1 [Compound CCXLVII]
> 7.00

# lookup: pIC50 of Cc1nn(C)c(C)c1-c1nc2c(N[C@H]3[C@@H](C(N)=O)[C@@H]4C=C[C@H]3C4)c(Br)cnc2[nH]1 [Compound CLII]
> 7.00

# lookup: pIC50 of NC(=O)[C@@H]1[C@H](Nc2c(Cl)cnc3[nH]c(-c4ccnc(N5CCOCC5)c4)nc23)[C@H]2C=C[C@@H]1C2 [Compound CXXVI]
> 7.00

# lookup: pIC50 of NC(=O)[C@@H]1[C@H](Nc2ccnc3[nH]c(-c4ccc(CN5CCOCC5)cc4)nc23)[C@H]2C=C[C@@H]1C2 [Compound XC]
5.00 to 6.00

Entry source: patent US9238656B2
